Biological target: JAK3 (Homo sapiens, UniProt P52333)
Construct: U-937 cells, histiocytic lymphoma cell line; endogenous in cells; host or cells: U-937 (ATCC CRL-1593.2)
Sequence (P52333 whole entry): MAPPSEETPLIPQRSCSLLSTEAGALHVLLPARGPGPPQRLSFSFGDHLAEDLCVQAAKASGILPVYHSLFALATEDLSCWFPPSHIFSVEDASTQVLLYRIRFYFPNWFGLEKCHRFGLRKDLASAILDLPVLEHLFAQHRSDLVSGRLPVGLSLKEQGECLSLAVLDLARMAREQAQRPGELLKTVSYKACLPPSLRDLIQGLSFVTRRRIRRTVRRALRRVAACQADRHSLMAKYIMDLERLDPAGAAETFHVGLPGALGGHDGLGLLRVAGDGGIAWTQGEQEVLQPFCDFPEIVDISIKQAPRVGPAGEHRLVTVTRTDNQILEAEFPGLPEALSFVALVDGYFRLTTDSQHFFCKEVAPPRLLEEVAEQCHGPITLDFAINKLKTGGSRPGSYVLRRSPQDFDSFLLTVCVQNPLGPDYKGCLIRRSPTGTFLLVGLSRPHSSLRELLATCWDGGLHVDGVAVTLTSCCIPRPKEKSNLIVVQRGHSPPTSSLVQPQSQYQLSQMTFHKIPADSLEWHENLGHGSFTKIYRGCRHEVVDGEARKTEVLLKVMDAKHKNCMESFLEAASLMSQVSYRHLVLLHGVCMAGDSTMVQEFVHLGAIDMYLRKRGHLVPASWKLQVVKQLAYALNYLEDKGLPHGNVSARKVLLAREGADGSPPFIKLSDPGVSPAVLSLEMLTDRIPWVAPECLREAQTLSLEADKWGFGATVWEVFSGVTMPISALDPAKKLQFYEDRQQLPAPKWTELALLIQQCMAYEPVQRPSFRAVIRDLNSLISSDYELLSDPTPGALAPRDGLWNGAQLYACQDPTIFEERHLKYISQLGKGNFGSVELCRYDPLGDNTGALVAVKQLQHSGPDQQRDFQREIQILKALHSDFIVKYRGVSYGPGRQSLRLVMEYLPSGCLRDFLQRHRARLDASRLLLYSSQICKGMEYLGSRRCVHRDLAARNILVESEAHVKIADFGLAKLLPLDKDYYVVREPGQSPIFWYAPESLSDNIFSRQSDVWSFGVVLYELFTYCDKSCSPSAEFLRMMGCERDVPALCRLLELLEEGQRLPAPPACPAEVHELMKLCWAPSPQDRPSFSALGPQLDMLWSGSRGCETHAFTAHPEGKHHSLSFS
Assay: JAK phosphorylation/activation by flow cytometry, pSTAT5 staining in IL-4 stimulated U-937 cells; also: test concentration or dose not given here
Format: cell-based
Conditions: drug 30 min, then IL-4
quantityName: JAK3 pStat5-PE Signal

# compound, systemUnderTest, JAK3 pStat5-PE Signal
data = [
    ("O=C(NCc1ccccc1)Nc1ccc(-c2ccccc2)cn1", "JAK3 (Homo sapiens, UniProt P52333)", 4.15),
    ("O=C(Cc1ccc(-c2ccccc2)cc1)NCc1cccc(F)c1 [Control A]", "JAK3 (Homo sapiens, UniProt P52333)", 4.12),
    ("COc1cc2ncnc(Nc3ccc(O)c(Br)c3)c2cc1OC", "JAK3 (Homo sapiens, UniProt P52333)", 1.63),
    ("O=C(Cc1ccccc1)NCc1ccc(-c2ccccc2)cn1", "JAK3 (Homo sapiens, UniProt P52333)", 3.02),
]
